# System: Cullin-3 (CUL3) neddylation
# EXPERIMENT_SUMMARY: AlphaLISA assay for Cullin-3 (CUL3) neddylation in TF 1 cells
# Type: cell-based
# PROTOCOL_CONDITIONS: Homo sapiens, TF-1, 3 h, 3 hours treatment
# Procedure: An AiphaLISA assay was performed to evaluate the ability of the compounds to suppress neddylation, which is downstream from DCN-1 and DCN-2. A stronger inhibition of DCN-1 and DCN-2 is expected to result in a suppression of neddylation as shown by a lower AlphaLISA signal. […] The AlphaLISA signal was then read on a VICTOR Nivo Multimode Microplate Reader (Revvity, Hopkinton, MA). […]
// reported IC50 for each item listed

COMPOUND: CCN1C(=O)[C@@H](NC(=O)c2cccc(C(F)(F)F)c2)[C@@H](c2ccc(F)cc2)c2c(NC(=O)C3=CCCC3)nn(-c3ccccc3)c21 (racemic)
VALUE_MEASURED: ≤ 100 nM
--
COMPOUND: CCN1C(=O)[C@@H](NC(=O)c2cccc(C(F)(F)F)c2)[C@@H](c2ccc(F)cc2)c2c(C(=O)N3CCC[C@H]3C#N)nn(-c3ccccc3)c21 [Compound I-278]
VALUE_MEASURED: ≤ 100 nM

Would you kindly look at the next entry?
Briefly, IC50 measured for CCCn1nc(C(=O)N2CCC[C@H]2C#N)c2c1N(CC)C(=O)[C@@H](NC(=O)c1cccc(C(F)(F)F)c1)[C@H]2c1ccc(F)cc1 : ≤ 100 nM

* * *

# TARGET_DESC: DCN1 (DCUND1) protein PONY domain (Homo sapiens (Human))
# EXPERIMENT_SUMMARY: TR-FRET assay, DCN1 binding with FAM-labeled probe
# PROTOCOL_CONDITIONS: 24 hr after treatment with compound; read-out: TR FRET IC50 24 hr
# Description: A TR-FRET assay was performed to evaluate the ability of the compounds to bind the DCN-1 protein. The TR-FRET assay was designed following the Scott et al. protocol (Scott et al., Nat Chem Biol. 2017 August; 13(8): 850-857. Doi:10.1038/nchembio.2386). […] The TR-FRET ratio between Tb-DCN1 and the FAM-labeled probe was measured in a 384-well opti-plate (Perkin Elmer) using a plate reader (BMG) at 1, 5, and 24 hrs after treatment with compound (final DMSO concentration of 0.1%).
pIC50: −log10 of the molar value.
MEASUREMENT_LABEL: pIC50

Reference set, count: 2
COMPOUND: CCN1C(=O)[C@@H](NC(=O)c2cccc(C(F)(F)F)c2)[C@@H](c2ccc(F)cc2)c2c(C(=O)N3CCC[C@H]3C#N)nn(C3CCOCC3)c21 (mixture of isomers) [Compound I-292]
pIC50: ≥ 6.70
--
COMPOUND: CCN1C(=O)[C@@H](NC(=O)c2cccc(C(F)(F)F)c2)[C@@H](c2ccc(F)cc2)c2c([C@@H](O)CNC#N)nn(-c3ccccc3)c21 [Compound I-130]
pIC50: 6.00 to 6.70

Briefly, pIC50 measured for CCN1C(=O)[C@@H](NC(=O)CCN2C(=O)COc3ccccc32)[C@@H](C2CC2)c2c(C(=O)N3[C@H](C#N)C[C@H]4C[C@H]43)nn(C3CCOCC3)c21 [Compound I-556] : 5.52 to 6.00

Briefly, pIC50 measured for CCN1C(=O)[C@@H](NC(=O)c2cccc(C(F)(F)F)c2)[C@@H](c2ccc(F)cc2)c2c(CC/C=C/C(N)=O)nn(-c3ccccc3)c21 [Compound I-124] : 6.00 to 6.70

Briefly, pIC50 measured for CCN1C(=O)[C@@H](NC(=O)c2cccc(C(F)(F)F)c2)[C@@H](c2ccc(F)cc2)c2c(CCN(C)C#N)nn(-c3ccccc3)c21 (racemic) [Compound I-151] : ≥ 6.70

Briefly, pIC50 measured for CCN1C(=O)[C@@H](NC(=O)c2cccc(C(F)(F)F)c2)[C@@H](c2ccc(F)cc2)c2c(C(=O)N(C)[C@@H](C#N)CCN(C)C3COC3)nn(C3CCOCC3)c21 [Compound I-654] : ≥ 6.70

Briefly, pIC50 measured for CCN1C(=O)[C@@H](NC(=O)c2cccc(C(F)(F)F)c2)[C@@H](c2ccc(F)cc2)c2c(C(=O)NCC#N)nn(-c3ccccc3)c21 [Compound I-148] : 6.00 to 6.70

Briefly, pIC50 measured for C/C=C(\CN1CCOCC1)C(=O)NCc1nn(-c2ccccc2)c2c1[C@H](c1ccc(F)cc1)[C@H](NC(=O)c1cccc(C(F)(F)F)c1)C(=O)N2CC (racemic) [Compound I-14] : ≥ 6.70

Briefly, pIC50 measured for CCN1C(=O)[C@@H](NC(=O)c2ccc3c(c2)CCC3)[C@@H](C2CC2)c2c(C(=O)N3[C@H](C#N)C[C@H]4C[C@H]43)nn(C3CCOCC3)c21 [Compound I-391] : ≥ 6.70

Briefly, pIC50 measured for C=C(CN1CCC(C)(O)C1)C(=O)NCc1nn(-c2ccccc2)c2c1[C@H](c1ccc(F)cc1)[C@H](NC(=O)c1cccc(C(F)(F)F)c1)C(=O)N2CC (stereo partly drawn) [Compound I-25] : ≥ 6.70

Briefly, pIC50 measured for CCN1C(=O)[C@@H](NC(=O)c2cccc(C(F)(F)F)c2)[C@@H](c2ccc(F)cc2)c2c(CNC(=O)[C@H](C)C#N)nn(-c3ccccc3)c21 (relative stereo) [Compound I-85] : 5.52 to 6.00

Briefly, pIC50 measured for CCN1C(=O)[C@@H](NC(=O)c2cccc(C(F)(F)F)c2)[C@@H](c2ccc(F)cc2)c2c(C(=O)N(C)[C@@H](C#N)CCN3CC4CC(C3)O4)nn(-c3ccccc3)c21 [Compound I-313] : ≥ 6.70

Briefly, pIC50 measured for CCN1C(=O)[C@@H](NC(=O)c2cccc(C(F)(F)F)c2)[C@@H](c2ccc(F)cc2)c2c(CNC/C=C/C(=O)N3CCCC3)nn(-c3ccccc3)c21 [Compound I-400] : ≥ 6.70

Briefly, pIC50 measured for CCN1C(=O)[C@@H](NC(=O)c2cccc(C(F)(F)F)c2)[C@@H](c2ccc(F)cc2)c2c(C(=O)N(CC#N)CCN3CC4CCC(C3)O4)nn(-c3ccccc3)c21 (mixture of isomers) [Compound I-324] : ≥ 6.70

Briefly, pIC50 measured for CCN1C(=O)[C@@H](NC(=O)c2cccc(C(F)(F)F)c2)[C@@H](c2ccc(F)cc2)c2c(CC/C=C\C(=O)N(C)C)nn(-c3ccccc3)c21 (racemic) [Compound I-69] : 6.00 to 6.70

Briefly, pIC50 measured for CCN1C(=O)[C@@H](NC(=O)c2cccc(C(F)(F)F)c2)[C@H](c2ccc(F)cc2)c2c(CNC(=O)/C=C(\C)C(=O)OC)nn(-c3ccccc3)c21 [Compound I-104] : 6.00 to 6.70

Briefly, pIC50 measured for C=C(CN1C[C@@H]2C[C@H]1CO2)C(=O)NCc1nn(-c2ccccc2)c2c1[C@H](c1ccc(F)cc1)[C@H](NC(=O)c1cccc(C(F)(F)F)c1)C(=O)N2CC (mixture of isomers) [Compound I-12] : ≥ 6.70

* * *

# TARGET_DESC: DCN1 (DCUND1) protein PONY domain (Homo sapiens (Human), UniProt Q96GG9)
# Sequence (Q96GG9 60-248): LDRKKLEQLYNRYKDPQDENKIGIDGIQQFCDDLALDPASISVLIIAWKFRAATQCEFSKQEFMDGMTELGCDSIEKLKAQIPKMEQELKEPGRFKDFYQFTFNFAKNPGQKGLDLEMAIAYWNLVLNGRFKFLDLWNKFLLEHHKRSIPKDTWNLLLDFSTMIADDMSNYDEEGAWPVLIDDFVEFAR
# EXPERIMENT_SUMMARY: TR-FRET assay, DCN1 binding with FAM-labeled probe
# PROTOCOL_CONDITIONS: TR FRET IC50 1 hr (nM), 1 hr after treatment with compound
// reported IC50 for each item listed

COMPOUND: CCN1C(=O)[C@@H](NC(=O)c2cccn(C3CC3)c2=O)[C@@H](C2CC2)c2c(C(=O)N3[C@H](C#N)C[C@H]4C[C@H]43)nn(C3CCOCC3)c21 [Compound I-625]
TARGET_DESC: DCN1 (DCUND1) protein PONY domain (Homo sapiens (Human), UniProt Q96GG9)
VALUE_MEASURED: 1000 to 3000 nM
--
COMPOUND: CCN1C(=O)[C@@H](NC(=O)c2nc(C(F)(F)F)cs2)[C@@H](c2ccc(F)cc2)c2c(C(=O)N3CCC[C@H]3C#N)nn(C3CCOCC3)c21
TARGET_DESC: DCN1 (DCUND1) protein PONY domain (Homo sapiens (Human), UniProt Q96GG9)
VALUE_MEASURED: 1000 to 3000 nM
--
COMPOUND: CCN1C(=O)[C@@H](NC(=O)c2cccc(C(F)(F)F)c2)[C@@H](c2ccc(F)cc2)c2c(C/C=C/C(=O)NCCN(C)C)nn(-c3ccccc3)c21
TARGET_DESC: DCN1 (DCUND1) protein PONY domain (Homo sapiens (Human), UniProt Q96GG9)
VALUE_MEASURED: 200 to 1000 nM

Briefly, IC50 measured for CCN1C(=O)[C@@H](NC(=O)c2cccc(C(F)(F)F)c2)[C@@H](c2ccc(F)cc2)c2c(C(=O)N3CCC[C@H]3C#N)nn(-c3cccc(OCCN(C)C4COC4)c3)c21 : 200 to 1000 nM

Briefly, IC50 measured for CCN1C(=O)C(NC(=O)c2cccc(C(F)(F)F)c2)[C@@H](C2CC2)c2c(C(=O)N3CC(NC)CC3C#N)nn(C3CCOCC3)c21 (stereo in doubt) : 1000 to 3000 nM
